FYI, the data here is from patent US20090304746A1.

- STUDY_TARGET: HLA-B*5301 (Human)
- EXPERIMENTAL_PROTOCOL: competition with 125I-labelled standard peptide for purified HLA, gel filtration
// values below are reported binding affinity ratio (IC50 standard/IC50 test)
Give a plain numeric answer without units written out.

Recorded results for 5 binders are shown here.
BINDER: QPEYDLELI (modifications not checked)
ENDPOINT_VALUE: 0.0001
//
BINDER: QPEKGGRKPA (modifications not checked)
ENDPOINT_VALUE: 0.0002
//
BINDER: QPGYPWPLY (modifications not checked)
ENDPOINT_VALUE: 0.0001
//
BINDER: SPGEINRVA (modifications not checked)
ENDPOINT_VALUE: 0.0002
//
BINDER: PPPSWDQMW (modifications not checked)
ENDPOINT_VALUE: 0.0001

Next item in the queue.
response.value for NPSVAATLGF (modifications not checked) (field: binding affinity ratio (IC50 standard/IC50 test)) = 0.0001
